- Experimental target: human GPVI-Fc (isoform and haplotype not stated) used in the competition ELISA (human) (UniProt Q9HCN6)
- Experimental protocol: Competition ELISA (MSD): human GPVI-Fc preincubated with Fab, then on coated CRP-XL (competitor)
Measure: Maximum inhibition at 200 nM Fab [%] (%)

Fab #3 comprising a modified heavy chain constant region (Fab, V domains shown) VH: QVQLVESGGGLVKPGGSLRLSCAASGFSFGDYYVSWIRQAPGKGLEWVSAIGGSGSAVQYAESVKGRFTISRDNAKNSLYLQMNSLRAEDTAVYYCARHYREFRWHYYYFDYWGQGTLVTVSS VL: QSVLTQPPSVSGAPGQRVTISCTGSSSNIGAGYDVHWYQQLPGTAPKLLIYGNSNRPSGVPDRFSGSKSGTSASLAITGLQAEDEADYYCQSHDLGAHVWVFGGGTKLTVLG :: 100
Reference Control Antibody RefFab #1 (humanized GPVI antibody of WO2011073954A2, SANOFI) (Fab, V domains shown) VH: EVQLLESGPGLVAPSGSLSITCTVSGFSLTGYGVNWVRQPPGKGLEWLGMIWGDGSTDYQSTLKSRLSISKDNSKSQVFLKMNSLRTDDTARYYCARDLPMDYWGLGTSVTVSS VL: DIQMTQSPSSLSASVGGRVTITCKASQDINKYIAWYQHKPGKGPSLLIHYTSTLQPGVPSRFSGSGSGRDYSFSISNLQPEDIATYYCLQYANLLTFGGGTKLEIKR :: 100
Fab #4 comprising a modified heavy chain constant region (Fab, V domains shown) VH: QVQLVQSGAEVKKPGASVKVSCKASGGAFTSSYMHWVRQAPGQGLEWMGIIEPTGASTLYAQRFQGRVTMTRDTSTSTVYMELSSLRSEDTAVYYCARTGIALPLGFDLWGQGTLVTVSS VL: QSVLTQPPSVSAAPGQKVTISCSGSSSNIGNNYVSWYQQLPGTAPKLLIYDNNKRPSGIPDRFSGSKSGTSATLGITGLQTEDEADYYCAAWSTRFRWVFGGGTKLTVLG :: 47
Fab #2 comprising a modified heavy chain constant region (Fab, V domains shown) VH: QVQLVESGGGLVKPGGSLRLSCAASGFSFSDHYMSWIRQAPGKGLEWVSSVGSEGKFIDYAASVKGRFTISRDNAKNSLYLQMNSLRAEDTAVYYCARHYREFRWHYYYFDYWGQGTLVTVSS VL: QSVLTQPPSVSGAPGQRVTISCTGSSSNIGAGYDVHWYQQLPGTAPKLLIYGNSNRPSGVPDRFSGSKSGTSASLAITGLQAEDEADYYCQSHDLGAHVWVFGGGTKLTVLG :: 100
Fab #1 comprising a modified heavy chain constant region (Fab, V domains shown) VH: QVQLVQSGAEVKKPGASVKVSCKASGYTFTSHYMHWVRQAPGQGLEWMGLIEPSEGETEYAQRFQGRVTMTRDTSTSTVYMELSSLRSEDTAVYYCARDSSRSYPLGFDIWGQGTLVTVSS VL: QSVLTQPPSVSAAPGQKVTISCSGSSSNIGNNYVSWYQQLPGTAPKLLIYDNNKRPSGIPDRFSGSKSGTSATLGITGLQTEDEADYYCAAWDFRSSRWVFGGGTKLTVLG :: 63
